# Tested on: EA.hy 926
# assay notes: Antiproliferative activity against human EAhy926 cells after 48 hrs by MTT assay
# Type: functional, cell-based
# test context: EA.hy 926, 48 h
endpoint: IC50 (µM)
Report the figure in µM without appending any unit label.

Worked examples follow.
structure notation | observed measurement
COc1ccc(-c2nc(CNCCCCNCc3cc4c5ccccc5n(C)c4c(-c4ccc(OC)cc4)n3)cc3c4ccccc4n(C)c23)cc1 | 2.94
Clc1ccc(-c2nc(CNCCCCCNCc3cc4c5ccccc5n(Cc5ccccc5)c4c(-c4ccc(Cl)cc4)n3)cc3c4ccccc4n(Cc4ccccc4)c23)cc1 | 4.32
Cc1nc(CNCCCCCCNCc2cc3c4ccccc4n(C)c3c(C)n2)cc2c3ccccc3n(C)c12 | 1.85
COc1ccc(-c2nc(CNCCCCCNCc3cc4c5ccccc5n(C)c4c(-c4ccc(OC)cc4)n3)cc3c4ccccc4n(C)c23)cc1 | 1.1
CCCCCCn1c2ccccc2c2cc(CNCCCCCCNCc3cc4c5ccccc5n(CCCCCC)c4c(-c4ccc(OC)cc4)n3)nc(-c3ccc(OC)cc3)c21 | 4.25

Please report the recorded IC50 for Clc1ccc(-c2nc(CNCCCCCCNCc3cc4c5ccccc5n(Cc5ccccc5)c4c(-c4ccc(Cl)cc4)n3)cc3c4ccccc4n(Cc4ccccc4)c23)cc1 . 3.63

Please report the recorded IC50 for CC(C)c1nc(CNCCCNCc2cc3c4ccccc4n(Cc4ccccc4)c3c(C(C)C)n2)cc2c3ccccc3n(Cc3ccccc3)c12 . 13.5

Please report the recorded IC50 for Cn1c2ccccc2c2cc(CNCCCCNCc3cc4c5ccccc5n(C)c4c(-c4ccccc4)n3)nc(-c3ccccc3)c21 . 2.47

Please report the recorded IC50 for CCCCn1c2ccccc2c2cc(CNCCCCCNCc3cc4c5ccccc5n(CCCC)c4c(C(C)C)n3)nc(C(C)C)c21 . 1.4
